# pIC50 annotations
Test system: NCI-H358 (K-Ras G12C)
test.name: CellTiter-Glo cell viability assay, NCI-H358
Type: cell-based, human
conditions: Homo sapiens, NCI-H358, 120 h, NCI-H358, 5-day treatment; class symbols; read-out: Additional H358 Cell Viability assay data (K-Ras G12C, IC50)
pIC50: −log10 of the molar value.
measure.name: pIC50

compound	readout.value
C=CC(=O)N1CCN(C(=O)N(C)[C@H](C(=O)N[C@H]2Cc3nc(cs3)-c3ccc4c(c3)c(c(-c3cccnc3[C@H](C)OC)n4CC)CC(C)(C)COC(=O)[C@@H]3CCCN(N3)C2=O)C(C)C)C[C@@H]1C (atropisomer, axis not shown)	7.00 to 8.00
C=CC(=O)N1CC[C@@](C#N)(C(=O)N(C)[C@H](C(=O)N[C@H]2Cc3cccc(c3)-c3ccc4c(c3)c(c(-c3cccnc3[C@H](C)OC)n4CC)CC(C)(C)COC(=O)[C@@H]3CCCN(N3)C2=O)C(C)C)C1 (atropisomer, axis not shown)	> 8.00
C=CC(=O)N1CC[C@H](C(=O)N(C)[C@H](C(=O)N[C@H]2Cc3cc(cc(O)c3F)-c3ccc4c(c3)c(c(-c3ccccc3CCOC)n4CC)CC(C)(C)COC(=O)[C@@H]3CCCN(N3)C2=O)C(C)C)C1	6.00 to 7.00
C=CC(=O)Nc1csc(C(=O)N(C)[C@H](C(=O)N[C@H]2Cc3cc(O)cc(c3)-c3ccc4c(c3)c(c(-c3cccnc3[C@H](C)OC)n4CC)CC(C)(C)COC(=O)[C@@H]3CCCN(N3)C2=O)C(C)C)n1 (atropisomer, axis not shown)	6.00 to 7.00
C=CS(=O)(=O)N1CC[C@H](C(=O)N(C)[C@H](C(=O)N[C@H]2Cc3cc(O)cc(c3)-c3ccc4c(c3)c(c(-c3cccnc3COC)n4CC)CC(C)(C)COC(=O)[C@@H]3CCCN(N3)C2=O)C(C)C)C1	7.00 to 8.00
C=CC(=O)N1CC[C@@]2(C1)CN(C(=O)N(C)[C@H](C(=O)N[C@H]1Cc3nc(cs3)-c3ccc4c(c3)c(c(-c3cccnc3[C@H](C)OC)n4CC)CC(C)(C)COC(=O)[C@@H]3CCCN(N3)C1=O)C(C)C)CCO2 (atropisomer, axis not shown)	7.00 to 8.00
CC#CC(=O)N1CC2(CCN2C(=O)N(C)[C@H](C(=O)N[C@H]2Cc3nc(cs3)-c3ccc4c(c3)c(c(-c3cccnc3[C@H](C)OC)n4CC)CC(C)(C)COC(=O)[C@@H]3CCCN(N3)C2=O)C(C)C)C1 (atropisomer, axis not shown)	7.00 to 8.00
CC#CC(=O)N1CC(N(C)C(=O)N(C)[C@H](C(=O)N[C@H]2Cc3nc(cs3)-c3ccc4c(c3)c(c(-c3cccnc3[C@H](C)OC)n4CC)CC(C)(C)COC(=O)[C@@H]3CCCN(N3)C2=O)C(C)C)C1 (atropisomer, axis not shown)	6.00 to 7.00
